Reference source for all entries: patent US20130302442A1

- System: hospital-associated methicillin-resistant S. aureus (MRSA-HA)
- methodNotes: In vitro MIC against isolates of MRSA-HA
- Assay type: cell-based, Staphylococcus aureus
- conditionParameters: Staphylococcus aureus; MRSA-HA (33 isolates)
Form field: MIC50 (one value per entry).
Numeric answer only, unit µg/mL assumed.

Below: 4 compounds and their reported MIC50.
>  <itemSmiles>
CON(C)Cc1ccc(O)c2c1C[C@H]1C[C@H]3[C@H](N(C)C)C(O)=C(C(N)=O)C(=O)[C@@]3(O)C(O)=C1C2=O

>  <MIC50 (µg/mL)>
0.25

$$$$
>  <itemSmiles>
CC(=O)NC[C@H]1CN(c2ccc(N3CCOCC3)c(F)c2)C(=O)O1

>  <MIC50 (µg/mL)>
2

$$$$
>  <itemSmiles>
Cc1onc(-c2ccccc2)c1C(=O)N[C@@H]1C(=O)N2[C@@H]1SC(C)(C)[C@@H]2C(=O)O

>  <MIC50 (µg/mL)>
32

$$$$
>  <itemSmiles>
CCC[C@@H]1C[C@@H](C(=O)N[C@@H]([C@H]2O[C@H](SC)[C@H](O)[C@@H](O)[C@H]2O)[C@H](C)Cl)N(C)C1

>  <MIC50 (µg/mL)>
2

$$$$

QUERY: Which MIC50 value is on record for C[C@H]1c2cccc(O)c2C(=O)C2=C(O)[C@]3(O)C(=O)C(C(N)=O)=C(O)[C@@H](N(C)C)[C@@H]3[C@@H](O)[C@@H]21 ?
RESULT: 0.25

###

- System: S. aureus
- methodNotes: In vitro MIC testing, antibacterial spectrum of activity
- Assay type: cell-based, Staphylococcus aureus
- conditionParameters: S. aureus [MSSA] (32 isolates)
Form field: MIC Range (one value per entry).

QUERY: Which MIC Range value is on record for CON(C)Cc1ccc(O)c2c1C[C@H]1C[C@H]3[C@H](N(C)C)C(O)=C(C(N)=O)C(=O)[C@@]3(O)C(O)=C1C2=O ?
RESULT: 0.25 to 16 µg/mL

QUERY: Which MIC Range value is on record for C[C@H]1c2cccc(O)c2C(=O)C2=C(O)[C@]3(O)C(=O)C(C(N)=O)=C(O)[C@@H](N(C)C)[C@@H]3[C@@H](O)[C@@H]21 ?
RESULT: 0.12 to 8 µg/mL

QUERY: Which MIC Range value is on record for Cc1onc(-c2ccccc2)c1C(=O)N[C@@H]1C(=O)N2[C@@H]1SC(C)(C)[C@@H]2C(=O)O ?
RESULT: 0.12 to 1 µg/mL

QUERY: Which MIC Range value is on record for CN[C@H](CC(C)C)C(=O)N[C@H]1C(=O)N[C@@H](CC(N)=O)C(=O)N[C@H]2C(=O)N[C@H]3C(=O)N[C@H](C(=O)N[C@H](C(=O)O)c4cc(O)cc(O)c4-c4cc3ccc4O)[C@H](O)c3ccc(c(Cl)c3)Oc3cc2cc(c3O[C@@H]2O[C@H](CO)[C@@H](O)[C@H](O)[C@H]2O[C@H]2C[C@](C)(N)[C@H](O)[C@H](C)O2)Oc2ccc(cc2Cl)[C@H]1O ?
RESULT: 0.5 to 1 µg/mL

###

The reader will find MIC measurements below, all made with Bifidobacterium bifidum.
Numeric answer only, unit µg/mL assumed.

>  <itemSmiles>
CN(C)[C@@H]1C(O)=C(C(N)=O)C(=O)[C@@]2(O)C(O)=C3C(=O)c4c(O)cccc4[C@@](C)(O)[C@H]3C[C@@H]12

>  <recordedNumber>
1

$$$$

QUERY: Field: MIC (Bifidobacterium bifidum). Entry: CN(C)c1ccc(O)c2c1C[C@H]1C[C@H]3[C@H](N(C)C)C(O)=C(C(N)=O)C(=O)[C@@]3(O)C(O)=C1C2=O
RESULT: 0.25

QUERY: Field: MIC (Bifidobacterium bifidum). Entry: CON(C)Cc1ccc(O)c2c1C[C@H]1C[C@H]3[C@H](N(C)C)C(O)=C(C(N)=O)C(=O)[C@@]3(O)C(O)=C1C2=O
RESULT: 1

QUERY: Field: MIC (Bifidobacterium bifidum). Entry: C[C@H]1c2cccc(O)c2C(=O)C2=C(O)[C@]3(O)C(=O)C(C(N)=O)=C(O)[C@@H](N(C)C)[C@@H]3[C@@H](O)[C@@H]21
RESULT: 0.5
